SYSTEM: Protease (Human immunodeficiency virus 1, UniProt Q9YQ12)
Sequence (Q9YQ12 whole entry): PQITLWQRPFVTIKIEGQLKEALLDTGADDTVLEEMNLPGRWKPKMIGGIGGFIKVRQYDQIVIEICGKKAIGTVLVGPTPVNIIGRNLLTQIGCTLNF
MEASUREMENT DESCRIPTION: Inhibition of HIV1 recombinant protease expressed in Escherichia coli using Abz-Ala-Arg-Val-Nle-Tyr(NO2)-Glu-Ala-Nle-NH2 as substrate by FRET assay
OBSERVED PROPERTY: IC50 (µM)

CHEM SMILES	IC50, µM
CC1(C)CC[C@]2(C(=O)O)CC[C@]3(C)C(=CC[C@@H]4[C@@]5(C)CC[C@H](OC(=O)c6ccccc6C(=O)O)C(C)(C)[C@@H]5CC[C@]43C)[C@@H]2C1	0.31
CC(C)(CC(=O)O)CC(=O)O[C@@H]1C[C@]2(C)[C@H]3CC=C4[C@@H]5CC(C)(C)CC[C@]5(C(=O)O)CC[C@@]4(C)[C@]3(C)CC[C@H]2C(C)(C)[C@H]1OC(=O)CC(C)(C)CC(=O)O	27.5
CC(=O)O[C@H]1CC[C@]2(C)[C@H]3CC=C4[C@@H]5CC(C)(C)CC[C@]5(C(=O)O)CC[C@@]4(C)[C@]3(C)CC[C@H]2C1(C)C	3.4
CC(C)(CC(=O)O)CC(=O)O[C@H]1CC[C@]2(C)[C@H]3CC=C4[C@@H]5CC(C)(C)CC[C@]5(C(=O)O)CC[C@@]4(C)[C@]3(C)CC[C@H]2C1(C)C	0.7
CC1(C)CC[C@]2(C(=O)OCc3ccccc3)CC[C@]3(C)C(=CC[C@@H]4[C@@]5(C)C[C@@H](OC(=O)CCC(=O)O)[C@H](O)C(C)(C)[C@@H]5CC[C@]43C)[C@@H]2C1	15.6

P = CCCC(=O)O[C@@H]1C[C@]2(C)[C@H]3CC=C4[C@@H]5CC(C)(C)CC[C@]5(C(=O)O)CC[C@@]4(C)[C@]3(C)CC[C@H]2C(C)(C)[C@H]1OC(=O)CCC
Q = CC1(C)CC[C@]2(C(=O)OCc3ccccc3)CC[C@]3(C)C(=CC[C@@H]4[C@@]5(C)C[C@@H](OC(=O)c6ccccc6C(=O)O)[C@H](O)C(C)(C)[C@@H]5CC[C@]43C)[C@@H]2C1
R = CC1(C)CC[C@]2(C(=O)OCc3ccccc3)CC[C@]3(C)C(=CC[C@@H]4[C@@]5(C)C[C@@H](OC(=O)c6ccccc6C(=O)O)[C@H](OC(=O)c6ccccc6C(=O)O)C(C)(C)[C@@H]5CC[C@]43C)[C@@H]2C1
Rank the items in ascending order with respect to IC50. Please respond by ranking the labels in the order requested. Q, R, P

1 = CC1(C)CC[C@]2(C(=O)O)CC[C@]3(C)C(=CC[C@@H]4[C@@]5(C)C[C@@H](O)[C@H](O)C(C)(C)[C@@H]5CC[C@]43C)[C@@H]2C1
2 = CC1(C)CC[C@]2(C(=O)OCc3ccccc3)CC[C@]3(C)C(=CC[C@@H]4[C@@]5(C)C[C@@H](OC(=O)CCC(=O)O)[C@H](OC(=O)CCC(=O)O)C(C)(C)[C@@H]5CC[C@]43C)[C@@H]2C1
Identify the entry with the smaller IC50: 1 or 2 . Identify your pick by its label. 2
